Catalogue of koff readings, one per entry.
systemUnderTest: T1, Human MuSK (R&D Systems, cat. 10189-MK, histidine tag) (human, UniProt O15146 24-495)
T1 construct: Bought protein; also called human monomeric MuSK-6xhis; not shown: histidine tag (6xhis)
T1 sequence: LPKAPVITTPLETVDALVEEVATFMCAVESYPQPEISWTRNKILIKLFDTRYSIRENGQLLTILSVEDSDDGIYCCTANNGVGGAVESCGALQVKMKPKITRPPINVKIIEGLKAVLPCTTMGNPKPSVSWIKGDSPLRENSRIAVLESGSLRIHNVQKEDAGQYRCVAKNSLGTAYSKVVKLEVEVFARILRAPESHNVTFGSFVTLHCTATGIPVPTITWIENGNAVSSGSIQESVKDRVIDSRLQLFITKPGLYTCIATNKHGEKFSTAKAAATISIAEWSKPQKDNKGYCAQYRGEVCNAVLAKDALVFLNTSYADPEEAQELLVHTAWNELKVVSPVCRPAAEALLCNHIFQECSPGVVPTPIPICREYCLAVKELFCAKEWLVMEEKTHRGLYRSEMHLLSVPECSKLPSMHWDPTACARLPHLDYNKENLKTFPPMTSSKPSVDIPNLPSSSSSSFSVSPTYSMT
protocolDescription: SPR (Biacore), antibody captured on anti-hFc chip; 1.25 nM; dissociation pH 7.4
Provide only the numeric value, understood in s⁻¹.

3D10a (antibody, human IgG1, kappa, L234A L235A, V domains shown) VH: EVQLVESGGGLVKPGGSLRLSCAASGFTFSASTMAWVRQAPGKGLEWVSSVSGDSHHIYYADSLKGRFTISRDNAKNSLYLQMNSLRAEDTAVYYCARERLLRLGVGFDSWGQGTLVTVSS VL: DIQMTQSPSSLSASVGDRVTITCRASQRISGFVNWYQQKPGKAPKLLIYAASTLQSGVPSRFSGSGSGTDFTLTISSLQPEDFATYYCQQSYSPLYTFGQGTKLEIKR :: 0.00016
3D9b (antibody, human IgG1, kappa, L234A L235A, V domains shown) VH: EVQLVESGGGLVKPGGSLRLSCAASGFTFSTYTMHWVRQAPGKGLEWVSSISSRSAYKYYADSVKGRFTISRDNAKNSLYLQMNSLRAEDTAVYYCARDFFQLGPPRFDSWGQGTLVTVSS VL: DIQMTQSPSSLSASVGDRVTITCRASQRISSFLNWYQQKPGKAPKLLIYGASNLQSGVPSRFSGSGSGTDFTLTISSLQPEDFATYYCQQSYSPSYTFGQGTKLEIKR :: 0.00014
3F6c (antibody, human IgG1, kappa, L234A L235A, V domains shown) VH: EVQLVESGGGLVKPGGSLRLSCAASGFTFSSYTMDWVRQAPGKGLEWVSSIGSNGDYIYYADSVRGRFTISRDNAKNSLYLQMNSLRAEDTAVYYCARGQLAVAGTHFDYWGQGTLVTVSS VL: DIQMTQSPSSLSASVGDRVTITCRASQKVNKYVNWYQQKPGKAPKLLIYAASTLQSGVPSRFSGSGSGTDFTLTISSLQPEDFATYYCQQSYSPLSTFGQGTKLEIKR :: 7e-05

The binder listed as 4D3 (antibody, human IgG1, kappa, L234A L235A, V domains shown) VH: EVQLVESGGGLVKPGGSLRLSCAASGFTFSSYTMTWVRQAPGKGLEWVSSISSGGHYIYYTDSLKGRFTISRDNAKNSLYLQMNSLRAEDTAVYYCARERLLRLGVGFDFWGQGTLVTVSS VL: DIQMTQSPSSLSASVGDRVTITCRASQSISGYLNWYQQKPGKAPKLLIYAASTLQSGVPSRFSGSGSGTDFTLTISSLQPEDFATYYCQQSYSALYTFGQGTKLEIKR shows koff equal to 0.00015
